# assayText: PK of compound of Formula (Ia) after single intramuscular dose of solution formulations in Wistar Han rats
# Assay type: in vivo
# experimentalContext: male, Wistar Han, rat, plasma, im, 100 mg/kg, Solution K (~500 mg/mL; Na salt, water, PEG 300, ethanol); single IM 100 mg/kg; male Wistar Han rats; mean ± SD, n = 4; read-out: AUC0-24h
measuredAttribute: AUC(0-t) (µM·h)
The reply should be a number in µM·h, with the unit left off.

// AUC(0-t) value for CC(C)(C#Cc1ccc(-c2ccc(Cl)c3c(NS(C)(=O)=O)nn(CC(F)(F)F)c23)c([C@H](Cc2cc(F)cc(F)c2)NC(=O)Cn2nc(C(F)(F)F)c3c2C(F)(F)[C@@H]2C[C@H]32)n1)S(C)(=O)=O [compound of Formula (Ia)] : 6.13

FYI, the data here is from patent US11807625B2.
